Target: Kir6.1/SUR2B channel (Rattus norvegicus)
Experiment: whole-cell voltage clamp, HEK293
pIC50: −log10 of the molar value.
endpoint: pIC50

>>> quantitative_result("Cc1ccc(C)c(OCCCC(C)(C)C(=O)O)c1 [Gemfibrozil]")
3.54
>>> quantitative_result("O=C1NC(=O)C(Cc2ccc3c(c2)CC[C@H](Cc2ccccc2)O3)S1 (stereo partly shown) [Englitazone]")
5.15
>>> quantitative_result("O=C1NC(=O)/C(=C/c2ccc3nccnc3c2)S1 [AS605240]")
4.22
>>> quantitative_result("CCOc1ccc(C=C2SC(=O)N(CCN)C2=O)cc1 [A6355]")
5.10
>>> quantitative_result("CC(C)OC(=O)C(C)(C)Oc1ccc(C(=O)c2ccc(Cl)cc2)cc1 [Fenofibrate]")
4.10
>>> quantitative_result("CCc1ccc(CCOc2ccc(CC3SC(=O)NC3=O)cc2)nc1 (stereo not shown) [Pioglitazone]")
4.02
>>> quantitative_result("Cc1cc(SCc2sc(-c3ccc(C(F)(F)F)cc3)nc2C)ccc1OCC(=O)O [GW501516]")
3.92
>>> quantitative_result("Cc1oc(-c2ccccc2)nc1CCC(=O)c1ccc(CC2SC(=O)NC2=O)cc1 (stereo not shown) [Darglitazone]")
4.60
>>> quantitative_result("Cc1cc(SCc2sc(-c3ccc(C(F)(F)F)c(F)c3)nc2C)ccc1OCC(=O)O [GW0742]")
4.10

====

Property: log10(IC50); scope: individual compounds
Target: Kir6.1/SUR2B channel (Rattus norvegicus, UniProt Q63664)
Sequence (Q63664 whole entry): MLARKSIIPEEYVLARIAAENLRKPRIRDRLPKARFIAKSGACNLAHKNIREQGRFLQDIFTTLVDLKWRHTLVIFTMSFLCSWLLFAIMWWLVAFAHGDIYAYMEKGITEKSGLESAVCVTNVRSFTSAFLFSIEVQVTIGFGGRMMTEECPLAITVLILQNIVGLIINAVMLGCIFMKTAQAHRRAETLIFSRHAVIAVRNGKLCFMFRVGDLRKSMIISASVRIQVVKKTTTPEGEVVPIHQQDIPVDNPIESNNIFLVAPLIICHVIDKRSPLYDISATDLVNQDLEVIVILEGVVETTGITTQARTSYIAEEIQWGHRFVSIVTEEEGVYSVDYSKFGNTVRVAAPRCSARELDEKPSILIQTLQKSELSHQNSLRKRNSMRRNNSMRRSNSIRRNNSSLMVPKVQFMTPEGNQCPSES
Sequence (P70170 whole entry partner): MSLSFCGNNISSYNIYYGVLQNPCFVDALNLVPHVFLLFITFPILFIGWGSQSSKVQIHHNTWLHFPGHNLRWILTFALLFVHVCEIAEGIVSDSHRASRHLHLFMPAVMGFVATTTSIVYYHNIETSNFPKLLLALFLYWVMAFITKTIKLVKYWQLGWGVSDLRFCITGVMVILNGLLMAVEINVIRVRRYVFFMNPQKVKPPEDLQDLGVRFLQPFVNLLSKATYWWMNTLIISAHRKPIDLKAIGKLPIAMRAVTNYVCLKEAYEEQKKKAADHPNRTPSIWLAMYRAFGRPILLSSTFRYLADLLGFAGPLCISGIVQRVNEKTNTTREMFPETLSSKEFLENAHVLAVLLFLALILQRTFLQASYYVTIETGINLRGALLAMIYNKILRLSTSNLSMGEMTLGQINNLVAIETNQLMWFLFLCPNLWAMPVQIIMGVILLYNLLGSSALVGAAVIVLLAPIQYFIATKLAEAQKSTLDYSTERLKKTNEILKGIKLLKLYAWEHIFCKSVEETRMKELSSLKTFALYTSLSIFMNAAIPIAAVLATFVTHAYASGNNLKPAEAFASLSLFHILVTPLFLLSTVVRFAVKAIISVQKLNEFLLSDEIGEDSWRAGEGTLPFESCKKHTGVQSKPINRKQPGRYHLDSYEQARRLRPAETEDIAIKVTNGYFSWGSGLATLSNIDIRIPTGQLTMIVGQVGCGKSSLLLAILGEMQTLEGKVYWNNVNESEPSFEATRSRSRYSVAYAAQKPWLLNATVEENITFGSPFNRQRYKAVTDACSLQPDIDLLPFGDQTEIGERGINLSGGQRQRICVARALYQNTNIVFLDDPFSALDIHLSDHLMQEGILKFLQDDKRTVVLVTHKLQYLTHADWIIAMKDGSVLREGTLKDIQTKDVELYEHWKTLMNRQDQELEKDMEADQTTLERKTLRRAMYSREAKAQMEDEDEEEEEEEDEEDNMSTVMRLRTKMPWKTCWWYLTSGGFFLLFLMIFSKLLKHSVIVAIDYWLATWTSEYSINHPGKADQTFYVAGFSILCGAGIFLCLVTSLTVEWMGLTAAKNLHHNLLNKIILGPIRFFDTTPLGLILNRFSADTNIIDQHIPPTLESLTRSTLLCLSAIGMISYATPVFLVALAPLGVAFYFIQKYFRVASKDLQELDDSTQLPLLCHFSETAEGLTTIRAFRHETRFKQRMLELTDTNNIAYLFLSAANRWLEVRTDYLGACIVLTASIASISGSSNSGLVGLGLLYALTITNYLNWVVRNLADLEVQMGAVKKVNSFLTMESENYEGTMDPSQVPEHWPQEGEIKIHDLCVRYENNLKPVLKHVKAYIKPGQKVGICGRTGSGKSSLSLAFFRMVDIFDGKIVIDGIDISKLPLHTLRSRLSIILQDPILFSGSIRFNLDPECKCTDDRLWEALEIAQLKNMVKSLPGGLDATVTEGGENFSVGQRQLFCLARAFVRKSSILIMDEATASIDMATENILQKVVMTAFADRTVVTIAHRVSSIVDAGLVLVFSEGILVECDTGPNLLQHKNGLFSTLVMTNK
Test: whole-cell voltage clamp, HEK293
endpoint: log10(IC50) (log10 of the value in µM)

>>> quantitative_result("CCc1ccc(C(=O)COc2ccc(CC3SC(=O)NC3=O)cc2)nc1 (centres unmarked)")
1.18
>>> quantitative_result("Cc1c(C)c2c(c(C)c1O)CCC(C)(COc1ccc(CC3SC(=O)NC3=O)cc1)O2 (centres unmarked)")
2.00
>>> quantitative_result("O=C1NC(=O)/C(=C/c2ccc(-c3ccc(F)cc3O)o2)S1")
0.60
>>> quantitative_result("CC1(COc2ccc(CC3SC(=O)NC3=O)cc2)CCCCC1 (centres unmarked)")
2.08
>>> quantitative_result("CN(CCOc1ccc(CC2SC(=O)NC2=O)cc1)c1ccccn1 (centres unmarked)")
1.08
